Target: adenosine A2B receptor (Homo sapiens (Human))
Sequence (P29275 whole entry): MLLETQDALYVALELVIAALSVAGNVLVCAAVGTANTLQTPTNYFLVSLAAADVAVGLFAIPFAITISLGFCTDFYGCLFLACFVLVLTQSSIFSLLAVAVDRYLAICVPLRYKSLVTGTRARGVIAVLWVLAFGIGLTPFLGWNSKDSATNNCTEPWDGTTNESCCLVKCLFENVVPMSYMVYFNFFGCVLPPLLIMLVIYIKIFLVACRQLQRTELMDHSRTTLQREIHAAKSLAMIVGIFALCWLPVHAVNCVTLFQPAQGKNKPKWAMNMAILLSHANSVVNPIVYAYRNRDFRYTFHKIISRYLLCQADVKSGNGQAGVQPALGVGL
Assay: Adenosine receptor activity assay (Table 1), A2B activity
Format: biochemical
Conditions: read-out: Ave A2B cAMP IC50
Form field: IC50 (one value per entry).

Some solved entries appear below for comparison.
COCCNC(=O)c1nc(NCc2cnccn2)nc2ccsc12 : > 500 nM
C[C@H](Nc1nc(C(=O)N2CCCC2)c2sccc2n1)c1ccnc(F)c1 : 10 to 50 nM

Which IC50 value belongs to CCOC(=O)N(C)C1CN(C(=O)c2nc(N[C@@H](C)c3cncc(F)c3)nc3cc(C)sc23)C1 ?
10 to 50 nM

Cool, now CCC(Nc1nc(C(=O)N2CC[C@@H](OC)C2)c2sccc2n1)c1cccnc1 (stereo partly shown)
10 to 50 nM

Could you do the same for C[C@H](Nc1nc(C(=O)NC2CCC2)c2sccc2n1)c1ccccn1 , please?
< 10 nM

Let us now turn to C[C@H](Nc1nc(C(=O)N2CC(O)C2)c2sc(N)cc2n1)c1cccnc1
50 to 100 nM

Do the same for O=C(c1nc(NCc2cccc(Cl)c2)nc2ccsc12)N1CC[C@@H](O)C1 please
50 to 100 nM

----------
Test: Liver microsome (LM) intrinsic clearance, rat
Format: in vitro ADME
Labelling field: enter met if recorded LM CLint is less than 30 μL/min/mg/protein. Enter not met if it equals or exceeds that cut-off.

Solved entries (count: 3):
C[C@H](Nc1nc(C(=O)N2CC[C@@H](F)C2)c2sccc2n1)c1ccccn1 [Example Z52] : met
C[C@@H]1CCN(C(=O)c2nc(N[C@@H](C)c3cccnc3)nc3ccsc23)C1 [Example Z34] : not met
O=C(c1nc(NCc2cncc(F)c2)nc2ccsc12)N1CC[C@H](O)C1 [Example Z62] : met

Could you please tell me whether LM CLint recorded for CO[C@H]1CCN(C(=O)c2nc(N[C@@H](C)c3cccnc3)nc3ccsc23)C1 [Example Z18] is less than 30 μL/min/mg/protein?
not met

Another compound to check: COc1ccc(CNC(=O)c2nc(N[C@@H](C)c3ccccn3)nc3ccsc23)cn1 [Example Z16]
not met

----------
Molecular target: adenosine A2B receptor (Homo sapiens (Human))
Experiment: Adenosine receptor activity assay (Table 1), A2B activity
Type: biochemical
Settings: read-out: Ave A2B cAMP IC50
pIC50: −log10 of the molar value.
Measured Metric: pIC50

Cc1cc2nc(N[C@@H](C)c3cncc(F)c3)nc(C(=O)N3CC(CO)C3)c2s1 [Example Z494] : > 8.00

Requested read-out: pIC50. Entry: Cc1csc2c(C(=O)NCc3ccccc3)nc(N[C@@H](C)c3ccccn3)nc12 [Example Z443]
7.00 to 7.30

Repeat with C[C@H]1CCN(C(=O)c2nc(N[C@@H](C)c3cccnc3)nc3ccsc23)C1 [Example Z63]
7.30 to 8.00

# iterate: C[C@H](Nc1nc(C(=O)N2CCCCC2)c2sccc2n1)c1cccnc1 [Example Z31]
6.30 to 7.00

Do the same for Cc1cc2nc(N[C@@H](C)c3cncc(F)c3)nc(C(=O)N3CC[C@@H](NC(=O)OCc4ccccc4)C3)c2s1 [Example Z491] please
7.30 to 8.00

Request: COc1ccc(CNC(=O)c2nc(NCc3cccnc3C)nc3ccsc23)cn1 [Example Z94]
6.30 to 7.00

Also COC(=O)c1ccc(CCNC(=O)c2nc(N[C@@H](C)c3cncc(F)c3)nc3ccsc23)cc1 [Example Z423] ?
6.30 to 7.00

Now consider COc1cncc(CNc2nc(C(=O)N3CC(O)C3)c3sccc3n2)c1 [Example Z119] .
6.30 to 7.00

----------
# pIC50 per record follows
Target: adenosine A2A receptor (Homo sapiens (Human))
Sequence (P29274 whole entry): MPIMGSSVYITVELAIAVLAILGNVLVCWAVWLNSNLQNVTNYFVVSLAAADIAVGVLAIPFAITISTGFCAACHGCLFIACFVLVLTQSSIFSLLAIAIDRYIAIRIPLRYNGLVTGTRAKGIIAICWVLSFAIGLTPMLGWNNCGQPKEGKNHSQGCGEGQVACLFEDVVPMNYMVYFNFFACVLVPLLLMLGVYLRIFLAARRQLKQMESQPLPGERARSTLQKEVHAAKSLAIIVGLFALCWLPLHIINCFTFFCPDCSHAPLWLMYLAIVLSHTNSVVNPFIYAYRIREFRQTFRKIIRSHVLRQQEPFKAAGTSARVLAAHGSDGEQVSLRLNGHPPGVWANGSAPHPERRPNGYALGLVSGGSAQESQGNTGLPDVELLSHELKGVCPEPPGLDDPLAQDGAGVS
Experiment: Adenosine receptor activity assay (Table 1), A2A activity
Type: biochemical
Conditions: read-out: Ave A2A cAMP IC50
pIC50: −log10 of the molar value.

Example entries and their recorded answers appear below.
C[C@H](Nc1nc(C(=O)NCCc2ccccc2O)c2sccc2n1)c1cncc(F)c1 : 6.30 to 7.00
C[C@H](Nc1nc(C(=O)NCCc2ccc(O)cc2)c2sccc2n1)c1ccnc(F)c1 : 6.30 to 7.00
C[C@H](Nc1nc(C(=O)NCCC2CCN(C(=O)OC(C)(C)C)C2)c2sccc2n1)c1cncc(F)c1 (stereo partly drawn) : 7.00 to 7.30
C[C@H](NC(=O)c1nc(N[C@@H](C)c2ccncc2)nc2ccsc12)c1ccncc1 : < 6.30
C[C@H](Nc1nc(C(=O)N2CCC(C(=O)O)C2)c2sccc2n1)c1ccccn1 (stereo partly drawn) : < 6.30

We now examine a further compound.
Sample C[C@H](Nc1nc(C(=O)NCc2cncnc2)c2sccc2n1)c1cccnc1 — what was its pIC50?
< 6.30

----------
This section presents compounds with their documented IC50 values.
Biological target: adenosine A3 receptor (Homo sapiens (Human))
Sequence (P0DMS8 whole entry): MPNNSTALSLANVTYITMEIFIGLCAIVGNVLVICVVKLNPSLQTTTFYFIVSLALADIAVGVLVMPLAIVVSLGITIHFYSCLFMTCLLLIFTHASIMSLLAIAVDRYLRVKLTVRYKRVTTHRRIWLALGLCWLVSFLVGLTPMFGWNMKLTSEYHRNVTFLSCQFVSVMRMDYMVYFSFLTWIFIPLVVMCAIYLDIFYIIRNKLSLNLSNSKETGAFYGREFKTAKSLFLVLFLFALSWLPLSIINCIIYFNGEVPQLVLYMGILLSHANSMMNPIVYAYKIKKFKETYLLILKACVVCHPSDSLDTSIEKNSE
Test: Adenosine receptor activity assay (Table 1), A3 cAMP
Type: biochemical

Sample records with IC50:
COc1ccc([C@H](C)Nc2nc(C(=O)NCc3cccnc3)c3sccc3n2)cc1 [Example Z435] : 50 to 100 nM
C[C@H](Nc1nc(C(=O)N2CC(CNC(=O)OC(C)(C)C)C2)c2sccc2n1)c1cncc(F)c1 [Example Z404] : > 500 nM
C[C@H](Nc1nc(C(=O)N2CC(NC(=O)OC(C)(C)C)C2)c2sccc2n1)c1cncc(F)c1 [Example Z583] : > 500 nM
Cc1csc2c(C(=O)N3CCCC3)nc(N[C@@H](C)c3ccccn3)nc12 [Example Z459] : > 500 nM
Cc1cc2nc(N[C@@H](C)c3cncc(F)c3)nc(C(=O)N3CC(C(=O)NOC(C)(C)C)C3)c2s1 [Example Z592] : > 500 nM

# evaluate next
Kindly state the measured IC50 obtained for Cc1cc2nc(N[C@@H](C)c3cncc(F)c3)nc(C(=O)NCCC3CN(C(=O)OC(C)(C)C)C3)c2s1 [Example Z485] with adenosine A3 receptor (Homo sapiens (Human)).
> 500 nM

----------
Target: adenosine A2B receptor (Homo sapiens (Human))
Assay: Adenosine receptor activity assay (Table 1), A2B activity
Type: biochemical
Details: A2A activity to the A2B activity; A2A/A2B
Measured Metric: Ratio
// no unit string in output, number only

Past entries and their recorded results:
C[C@H](Nc1nc(C(=O)NCCc2ccc(O)cc2)c2sccc2n1)c1ccnc(F)c1 : 28.50
Cc1csc2c(C(=O)N3CC(NC(=O)C(C)(C)C)C3)nc(N[C@@H](C)c3ccccn3)nc12 : 1.93
Cc1cc2nc(N[C@@H](C)c3cncc(F)c3)nc(C(=O)N3CC(N4CCCC4)C3)c2s1 : 33.20
C[C@H](Nc1nc(C(=O)NCCc2ccc(NC(=O)OC(C)(C)C)cc2)c2sccc2n1)c1cncc(F)c1 : 5.32
C[C@H](Nc1nc(C(=O)N2CC[C@@H](O)C2)c2sccc2n1)c1ccnc(F)c1 : 6.69
Cc1cc2nc(N[C@@H](C)c3cncc(F)c3)nc(C(=O)N3CC(NC(=O)c4ccoc4)C3)c2s1 : 3.52

I would be grateful if you could share the reported Ratio for C[C@H](Nc1nc(C(=O)N2CC(NC(=O)C3(C(F)(F)F)CCC3)C2)c2sccc2n1)c1cncc(F)c1 .
0.19

Queued: COc1cccc(CCNC(=O)c2nc(N[C@@H](C)c3cncc(F)c3)nc3ccsc23)n1
19.23

Field entry: Cc1cc2nc(N[C@@H](C)c3cncc(F)c3)nc(C(=O)N3CC(CN(C)C)C3)c2s1
4.89

----------
Test: Hepatocyte (Hep) intrinsic clearance, rat
Assay type: in vitro ADME
Conditions: hepatocytes
Measured Metric: log10 hepatocyte CLint (log10 of the value in µL/min/1e6 cells)
Quick note: numbers are log10 of hepatocyte CLint, with µL/min/1e6 cells as the unit.

Recorded results for 5 compounds are shown here.
C[C@H](Nc1nc(C(=O)NCCO)c2sccc2n1)c1cccnc1 : 0.93
C[C@H](Nc1nc(C(=O)N2CCCC2)c2sccc2n1)c1cncc(F)c1 : 1.86
C[C@H](Nc1nc(C(=O)N2CC[C@@H](F)C2)c2sccc2n1)c1cccnc1 : 1.68
C[C@H](O)CNC(=O)c1nc(N[C@@H](C)c2cncc(F)c2)nc2ccsc12 : 1.43
O=C(c1nc(NCc2cncc(F)c2)nc2ccsc12)N1CC(O)C1 : 1.30

If you can, please state the reported log10 hepatocyte CLint value of COC1CN(C(=O)c2nc(N[C@@H](C)c3cncc(F)c3)nc3ccsc23)C1 .
1.57

How about this compound: COC1CN(C(=O)c2nc(NCc3cncc(F)c3)nc3ccsc23)C1
1.71

Further, for Cc1cncc(CNc2nc(C(=O)N3CCC3)c3sccc3n2)c1 ?
1.81

# iterate: COc1ccc(CNC(=O)c2nc(N[C@@H](C)c3ccccn3)nc3ccsc23)cn1
1.77

What do you get for C[C@@H]1CCN(C(=O)c2nc(N[C@@H](C)c3cccnc3)nc3ccsc23)C1 ?
2.12

Please answer likewise for C[C@H](Nc1nc(C(=O)N2CC[C@H](F)C2)c2sccc2n1)c1cccnc1
1.85

And for C[C@H](Nc1nc(C(=O)N2CCOC2)c2sccc2n1)c1ccccn1 ?
1.44

# repeat for C[C@H](Nc1nc(C(=O)N2CC(F)(F)C2)c2sccc2n1)c1cccnc1
1.88

And what about the compound COc1cc(F)cc(CNc2nc(C(=O)N3CC(O)C3)c3sccc3n2)c1 ?
1.82

Entry to check: C[C@H](NC(=O)c1nc(N[C@@H](C)c2ccccn2)nc2ccsc12)c1ccccn1
2.10
